These data points were gathered from patent US20080070990A1.

Biological target: adrenergic β1(h) receptor (Homo sapiens, UniProt P08588)
Sequence (P08588 whole entry): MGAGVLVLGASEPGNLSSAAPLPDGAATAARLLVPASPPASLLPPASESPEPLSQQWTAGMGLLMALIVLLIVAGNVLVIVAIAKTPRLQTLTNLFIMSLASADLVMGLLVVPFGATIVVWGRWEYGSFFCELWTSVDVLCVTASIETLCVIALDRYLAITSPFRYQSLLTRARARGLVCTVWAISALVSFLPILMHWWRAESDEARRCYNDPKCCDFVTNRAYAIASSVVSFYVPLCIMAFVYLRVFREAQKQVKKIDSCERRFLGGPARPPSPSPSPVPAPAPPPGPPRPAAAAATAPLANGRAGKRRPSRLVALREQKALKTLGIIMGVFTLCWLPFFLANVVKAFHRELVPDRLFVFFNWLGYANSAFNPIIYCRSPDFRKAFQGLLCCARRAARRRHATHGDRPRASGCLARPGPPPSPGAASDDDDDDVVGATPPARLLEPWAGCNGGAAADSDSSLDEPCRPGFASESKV
Structures can show the parent of a compound that is named as a salt.
Readout Type: Ki (µM)
Kindly provide the numeric value in µM only, without the unit symbol.

Problem: Observed Ki on adrenergic β1(h) receptor (Homo sapiens, UniProt P08588) for CC(CCc1ccc(O)cc1)NCC(O)c1ccc(O)cc1 (racemic) [Ractopamine, hydrochloride] , please.
Solution: 0.26

---

Molecular target: UniProtKB P13945
Sequence (P13945 whole entry): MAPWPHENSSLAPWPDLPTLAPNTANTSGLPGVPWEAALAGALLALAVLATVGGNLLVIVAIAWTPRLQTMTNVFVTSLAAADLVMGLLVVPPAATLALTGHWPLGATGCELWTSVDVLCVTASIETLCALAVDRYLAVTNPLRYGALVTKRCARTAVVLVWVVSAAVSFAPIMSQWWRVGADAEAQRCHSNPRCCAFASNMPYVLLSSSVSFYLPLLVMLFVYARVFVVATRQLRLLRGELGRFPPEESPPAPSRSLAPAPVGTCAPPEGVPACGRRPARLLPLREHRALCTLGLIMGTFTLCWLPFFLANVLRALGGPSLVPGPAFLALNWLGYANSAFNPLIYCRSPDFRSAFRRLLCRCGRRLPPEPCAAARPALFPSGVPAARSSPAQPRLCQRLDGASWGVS
Counter-ions that a name gives are not always drawn.
Readout Type: pKi
Conceptually, pKi converts a concentration in mol/L into minus its log10.

Problem: // lookup pKi for CC(CCc1ccc(O)cc1)NCC(O)c1ccc(O)cc1 (racemic) [Ractopamine, hydrochloride]
Solution: 4.85
